method.description: Tissue distribution of the in rat lung relative to plasma concentration of 1 mg/kg; relative concentration
parameter: Kp
No unit in the answer, please; the number alone is enough.

Task: Record request: Kp value, item Cc1nc(N)nc(N)c1-c1ccc(Cl)c(Cl)c1
Output: 31

---

method.description: Relative concentration of compound (70 mg/Kg) in brain compared to concentration in plasma (160 ug/mL) at the time of tissue collection from rabbit; relative concentration
Assay type: ADME, organism-based, Oryctolagus cuniculus
setup.conditions: read-out: Activity
parameter: Kp
// print number alone

Task: # get_value(readout='Kp', item= CN(Cc1cnc2nc(N)nc(N)c2n1)c1ccc(C(=O)N[C@@H](CCC(=O)O)C(=O)O)cc1 [METHOTREXATE] )
Output: 0.006

---

Item-by-item account of IC50
method.description: Cytotoxic activity was evaluated against Daoy tumor cells
Type: functional, cell-based
setup.conditions: Homo sapiens
Express it in nM; write the number only.

{"columns": ["compound", "numeric.result"],
 "data": [
  ["COc1cc(NCc2ccc3nc(N)nc(N)c3c2C)cc(OC)c1OC [TRIMETREXATE]", 12],
  ["CN(Cc1cnc2nc(N)nc(N)c2n1)c1ccc(C(=O)N[C@@H](CCC(=O)O)C(=O)O)cc1 [METHOTREXATE]", 9],
  ["CCC(CC)n1c(C)cc2c3c(N)nc(N)nc3ccc21", 2.3]
]}

Task: I'd like to know its IC50. The compound in question is COc1ccc(OC)c(Cc2cnc3nc(N)nc(N)c3c2C)c1
Output: 70

Task: Please look up its IC50: CCC(CC)n1ccc2c3c(N)nc(N)nc3ccc21
Output: 80

---

assay.target: Dihydrofolate reductase (Homo sapiens)
Sequence (P00374 whole entry): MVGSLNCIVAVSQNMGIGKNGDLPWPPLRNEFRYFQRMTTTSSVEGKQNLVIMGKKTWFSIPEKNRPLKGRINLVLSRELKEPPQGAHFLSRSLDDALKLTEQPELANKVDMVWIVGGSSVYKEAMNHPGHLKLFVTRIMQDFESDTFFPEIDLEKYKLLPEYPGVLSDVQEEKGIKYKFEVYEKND
method.description: Inhibition of human recombinant Dihydrofolate reductase enzyme
parameter: Ki

{"columns": ["compound", "result"],
 "data": [
  ["COc1ccc(OC)c(Cc2cnc3nc(N)nc(N)c3c2C)c1", "25 pM"],
  ["CCCc1cc2c3c(N)nc(N)nc3ccc2n1CC", "24 pM"],
  ["CCc1cc2c3c(N)nc(N)nc3ccc2n1C(C)CC (configuration not stated)", "0.1 pM"],
  ["CCC(CC)n1c(C(C)C)cc2c3c(N)nc(N)nc3ccc21", "0.1 pM"],
  ["CC(C)n1c(C(C)(C)C)cc2c3c(N)nc(N)nc3ccc21", "0.2 pM"],
  ["Cn1ccc2c3c(N)nc(N)nc3ccc21", "230 pM"]
]}

Task: Entry CC(C)c1cc2c(ccc3nc(N)nc(N)c32)[nH]1 has what Ki?
Output: 10 pM

Task: Which Ki is listed for CCn1c(C(C)C)cc2c3c(N)nc(N)nc3ccc21 ?
Output: < 2 pM

Task: If you can, please state the reported Ki value of CCc1cc2c3c(N)nc(N)nc3ccc2n1C .
Output: 29 pM

Task: Ki for CCC(C)(C)n1c(C)cc2c3c(N)nc(N)nc3ccc21 ?
Output: 0.4 pM

Task: Returns the measured Ki for the input compound. Input: CCCc1cc2c3c(N)nc(N)nc3ccc2n1C(CC)CC
Output: 0.4 pM

Task: Endpoint output: Ki of CC(C)(C)c1cc2c(ccc3nc(N)nc(N)c32)[nH]1 . Value?
Output: < 2 pM

---

Test system: HCT-8
method.description: Activity was evaluated against HCT-8 tumor cells
Format: functional, cell-based
setup.conditions: Homo sapiens
parameter: IC50 (nM)
Report only the number, with the unit nM understood.

These solved cases illustrate the format of a correct answer.
{"columns": ["molecule", "assay.target", "numeric.result"],
 "data": [
  ["CCc1cc2c3c(N)nc(N)nc3ccc2n1C(C)CC (stereo not drawn)", "HCT-8", 0.82],
  ["Cc1cc2c3c(N)nc(N)nc3ccc2n1C", "HCT-8", 85]
]}

Task: Param item = CCCCc1cc2c3c(N)nc(N)nc3ccc2n1C(C)(C)C ; retrieve measured IC50.
Output: 52

Task: Entry CC(C)(C)c1cc2c(ccc3nc(N)nc(N)c32)[nH]1 : reported IC50 = ?
Output: 3.3

Task: Suppose we examine the molecule Nc1nc(N)c2c(ccc3[nH]ccc32)n1 ; what IC50 value has been reported?
Output: 1450

Task: Need IC50, item CCn1c(C(C)C)cc2c3c(N)nc(N)nc3ccc21
Output: 1.4

Task: Fill in the blank: the reported IC50 of CC(C)n1c(C(C)(C)C)cc2c3c(N)nc(N)nc3ccc21 is ____.
Output: 1.3

Task: Record request: IC50 value, item CCc1cc2c3c(N)nc(N)nc3ccc2n1C(CC)CC
Output: 0.57
